experiment_summary: AUC (0 to t) in Sprague-Dawley rat at 10 mg/kg, po measured for 1 to 1440 mins by LC-MS/MS analysis
Format: ADME, organism-based
measurement_context: in vivo, time 1-1440 min
Reported AUC(0-t) values follow for various compounds

item_smiles | AUC(0-t)
Nc1nonc1-c1nc2ccccc2n1CC(=O)Nc1ccc(CCN2CCOCC2)cc1 | 1440 ng·h/mL
N#Cc1cc(Br)cc(NC(=O)Cn2c(-c3nonc3N)nc3ccccc32)c1 | 3360 ng·h/mL

---

experiment_summary: Ratio of AUC (0 to t) in brain to plasma in ICR mouse at 10 mg/kg, po measured for 10 to 480 mins by spectroscopy
Assay type: ADME, organism-based
measurement_context: time 10-480 min

item_smiles | Kp
Nc1nonc1-c1nc2ccccc2n1CC(=O)Nc1ccc(CCN2CCOCC2)cc1 | 0.32

---

Reported solubility at 24 h values follow for various compounds
experiment_summary: Solubility of compound in FaSSIF incubated for 24 hrs by HPLC analysis
Type: ADME

item_smiles | solubility at 24 h
Nc1nonc1-c1nc2ccccc2n1CC(=O)Nc1cccc(N2CCCCC2)c1 | 74.3 µM
Nc1nonc1-c1nc2ccccc2n1CC(=O)Nc1ccncc1 | 474 µM
Nc1nonc1-c1nc2ccccc2n1CC(=O)Nc1ccc(CC(=O)N2CCOCC2)cc1 | 951 µM
Nc1nonc1-c1nc2ccccc2n1CC(=O)Nc1cncc(F)c1 | 512 µM
CN1CCN(c2ccccc2NC(=O)Cn2c(-c3nonc3N)nc3ccccc32)CC1 | 483 µM

---

experiment_summary: Permeability of compound at 50 ug/ml incubated for 18 hrs by PAMPA
Assay type: ADME
measurement_context: dose 50 µg/ml, read-out: permeability

item_smiles | unit_info | Papp at 18 h, 50 ug/ml
Nc1nonc1-c1nc2ccccc2n1CC(=O)Nc1ccc(CCN2CCOCC2)cc1 | ×10⁻⁶ cm/s | 6.64
Nc1nonc1-c1nc2ccccc2n1CC(=O)Nc1ccc(CN2CCOCC2)cc1 | ×10⁻⁶ cm/s | 5.38
CN1CCN(c2cccc(NC(=O)Cn3c(-c4nonc4N)nc4ccccc43)c2)CC1 | ×10⁻⁶ cm/s | 3.57

---

experiment_summary: Tmax in Sprague-Dawley rat at 10 mg/kg, po measured for 1 to 1440 mins by LC-MS/MS analysis
Assay type: ADME, organism-based
measurement_context: in vivo, time 1-1440 min
quantity_kind: Tmax (min)

item_smiles | quantity_kind | result_value
Nc1nonc1-c1nc2ccccc2n1CC(=O)Nc1ccc(CCN2CCOCC2)cc1 | Tmax | 23.3
N#Cc1cc(Br)cc(NC(=O)Cn2c(-c3nonc3N)nc3ccccc32)c1 | Tmax | 10.8
Nc1nonc1-c1nc2ccccc2n1CC(=O)Nc1cnc2ccccc2c1 | Tmax | 9.5

---

Reported solubility at 24 h values follow for various compounds
experiment_summary: Solubility of compound in FaSSIF incubated for 24 hrs by HPLC analysis
Type: ADME

item_smiles | unit_info | solubility at 24 h
Nc1c2c(nc3ccccc13)CCCC2 | µM | 1440
Nc1nonc1-c1nc2ccccc2n1CC(=O)NC1CCCCC1 | µM | 232
COC(=O)c1cncc(NC(=O)Cn2c(-c3nonc3N)nc3ccccc32)c1 | µM | 211
Nc1nonc1-c1nc2ccccc2n1CC(=O)Nc1ccccn1 | µM | 322
Nc1nonc1-c1nc2ccccc2n1CC(=O)Nc1cccc(CC(=O)N2CCOCC2)c1 | µM | 728
Nc1nonc1-c1nc2ccccc2n1CC(=O)Nc1ccc(CN2CCOCC2)cc1 | µM | 3050
